testName: yeast display, Sf9 membrane polyspecificity reagent, FACS + sequencing; frameworks hold sequencing errors
parameter: polyreactivity (PSR sort gate)

QVQLEESGGGLVQAGGSLRLSSPASGFIFRYYAMGWYRQAPGKERELVAAISGRGGSTYYADSVKGRFTISRDNAKNTVYLQMNSLKPEDTAVYYCAVDVPSQGGDYWGQGTQVTVSS; high polyreactivity
QVQLVESGGGLVQAGGSLRLSCSASGFIFQGYAMGWDRQAPGKERELVATITTSSRTYYADSVKGRFTISRDNAKNTVYLQMYSLKPEDTAVYYCATRGSYRSQRWYGYWGQGTQVTVSS; high polyreactivity
QVQLVESGGGLVQAGGSLRLSCAASGFIFVYNAMGWYRQAPGKEREFVAGISRSGGNTYYADSVKGRFTISRDNAKNTVYLQMNSLKPEDTAVYYCAVVNRRFGFPNVALRSNYGDYWGQGTQVTVSS; low polyreactivity
QVQLVESGGGLVQAGGSLRLSCAASGRTSVRYAMGWYRQAPGKERELVAAISWSGGSTYYADSVKGRFTISRDNAKNTDYLQMNSLKAEDTAVYYCNAQHARGYYYWGQGTQVTVSS; low polyreactivity

###

testName: yeast display, Sf9 membrane polyspecificity reagent, FACS + sequencing; frameworks hold sequencing errors
parameter: polyreactivity (PSR sort gate)

QVQLVESGGGLVQAGGSLRLSCAASGSIFDPYAMGWYRQAPGKERELVAAITASGSSTYYADSVKGRFTISRDNAKNTVYLQMNSLKPEDTAVYYCAADRANWEYLLSWLGYDYWGQGTQVTVSS; low polyreactivity
QVQLQESGRRPGAAGGSPRMSCAASGNIFWVAVMGRYRQEPGQERELVASIGFGCTTYYADSVKCRFTISRDNAKNTVYLQMISLKPEDTAVYYCAAPHYDWGELDYWGQGTQVPVSS; low polyreactivity
QVQLVESGGGLVQAGGSLRLSCAASGRNFKIYTMGWYRQAPGKERELVAAISSSGRTYYADSVKGRFTISRDNAKNTVYLQMNSLKPEDTAVYYCAAVPYTRWKGADGDYWGQGTQVTVSS; high polyreactivity
QVQLVETWGGLVQAGGTLRLSCAASGSIFSPYAMGWYRQAPGKERELVAAISRNGGTTYYADSVKGRFTISRDNAKNTVYLQMNSLKPEDTAVYYCARLYYTQKDSKTGYGYWGQGTQVTVSS; high polyreactivity
QVQLVESGGGLVQAGGSLRLSCAASGRIFRGYAMGWYRQAPGKEREFVAAITKNGGSTYYADSVKGRFTISRDNAKNTVYLQMNSLKPEDTAVYYCAAGGPSTLDDYWGQGTQVTVSS; low polyreactivity
QVQLVESGGGLVQAGGSLRLSCAASGSTNRAYAMGWYRQAPGKERELVAAISYSGDSTYYADSVKGRFTISRDNAKNTVYLQMNSLKPEVTAVYYCNTAVWGPHRYDYWGQGTQVTVSS; low polyreactivity
QVQLVESGGGLVQAGGSLRLSCAASGNILRSYAMGWYRQAPGKERELVAAISADGSGTYYADSVKGRFTISRDNAKNTVYLQMNSLKPEDTAVYYCAAERYFWWYYDPENYWGQGTQVTVSS; high polyreactivity
QVQLVESGGGLFQAGGSLRLSCAASGFIFRPYGMGWYRQAPGKERELVAAISWSGDRTYYADSVKGRFTISRDNAKNTVYLQMNSLKPEDTAVYYCAADGVTRDYDYWGQGNQVTVSS; low polyreactivity
QVQLVESGGGLVQAGGSLRLSCAASGRIFYSYAMGWYRQAPGKERELVATITRRGSSTYYADSVKGRFTISRDNAKNTVYLQMNSLKPEDTAVYYCNAVGVRRAIGYPSQTEYGYWGQGTQVTVSS; high polyreactivity

###

testName: yeast display, Sf9 membrane polyspecificity reagent, FACS + sequencing; frameworks hold sequencing errors
parameter: polyreactivity (PSR sort gate)

QVQLVESGGGLVQAGGSLRLSCAASGRISGLYAMGWSRQAPGKEWELVADSTYYADSVKGRFTISRDNAKNTVYLQMNSLKEEDTAVYYCAAVGGGTSTYSGDYWGQGTQVTVSS; high polyreactivity
QVQLVESGGGLVQAGGSLRLSCAASGFTFEYYAMGWYRQAPGKERELVAVITWNGGSTYYADSVKGRFTISRDNAKNTVYLQMNSLKPEDTAVYYCNVVPYLYNGGSHRYNYWGQGTQVTVSS; high polyreactivity
QDQLVVSGGGLVQAGGSLRLSCAAYGFIVRSYDMGWYIQAPGKEREMVAAITSDVNSYYADSVKGRFTISRDNAKNTVYLQMNSLKPEDTAVYYFNADAVVYRDYQDYDYWGQGTQVTVSS; low polyreactivity
QVQLVESGGGLVQAGGSLRLSCAASGITFWRTAMGWYRQAPGKEREFVAAITWTGGRTYYADSVKGRFTISRDNAQNTVYLQMNSLKPEDTAVYYCATGQSRDYYWGQGTQGTVSS; high polyreactivity
QVQLVESGGGLVQAGGSLRLSCAASGRIFYSNVMGWYRQAPGKERELVAAITSGGSTYYADSVKGRFTISRDNAKNTVYLQMNSLKPEDTAVYYCAARVAFRPRGYIRYYYWGQGTQVTVSS; high polyreactivity
QVQLVESGGGLVQAGGSLRLSCAASGRTFRANTMGWYRLAPGKERELVAAISHSGGSTYYADSVKGRFTISRDNAKNTVYLQMNSLKPEDTAVYYCATDGGSYSWASPRVDYWGQGTQVTVSS; low polyreactivity
QVQLVESGGGLVQAGGSLRLSCAASGRTFENNAMGWYRQAPGKERELVATIRYSGTSTYADSVKGRFTISRDNAKNTVYLQMNSLKPEDTAVYYCAKQVRYYGYKYNYWGQGTQVTVSS; high polyreactivity
QVQLVESGGGLVQAGGSLRLSCAASGLTFRYYAMGWYRQAPGKERELVATITRAGRTNYADSVKGRFTISRDNAKNTVYLQMNSLKPEDTAVYYCATKRVLTGYDSWGQGTQVTVSS; high polyreactivity
QVQLVESGGGLVQAGGSLRLICAASGSIFGLYAMGWYRPAPGKEREFVASITYSGGSTYYADSVKGRFTISRDNAKNTVYLQMNSLKPEDTAVYYCAAESYWGYDYWGQGTQVTVSS; high polyreactivity
QVQLVESGGGLVQAGGSHRLSCAASGGTFNSNAMGWYRQAPGKERELVASITWRGGTYYADSVKGRFTISRDNAKNTVYLQMNSLKPEDTAVYYCAARGTIPGIHWIYYYWGQGTQVTVSS; high polyreactivity

###

testName: yeast display, Sf9 membrane polyspecificity reagent, FACS + sequencing; frameworks hold sequencing errors
parameter: polyreactivity (PSR sort gate)

QVQLVESGGGLVQAGGSLRLSCAASGIIFKRYTMGWYRQAPGKERELVAAITNRGGTYYADSVKGRFTISRDNAKNTVYLQMNSLKPEDTAVYYCAARYYWIDFKFGGPRDYWGQGTQVTVSS; high polyreactivity
QDQPVESGGGLVQAGGRLRLSCAASGIICSGYAMGWYRQAAGKERELVAAISNDGTRTYYADSVKGRFTISRDNAKNTVYLQMNSLKPEDTAVYYCAAYSRLNVLGYDYWGQGTQVTVSS; high polyreactivity
QVQLVESGGGLVQAGGSLRLSCAASGITFLRNTMGWYRQAPGKERELVAAISRCGSTYYADSVKGRFTISRDNAKNTVYLQMNSLKPEDTAVYYCNAPSYVQATDYDYWGQGTQVTVSS; high polyreactivity

###

testName: yeast display, Sf9 membrane polyspecificity reagent, FACS + sequencing; frameworks hold sequencing errors
parameter: polyreactivity (PSR sort gate)

QVQLVESGGGLVQAGGSLRLSCAASGSIFTENDMGWYRQAPGKEREMVAAIDWDGGRTYYADSVKGRFTISRDNAKNTVYLQMNSLKPEDTAVYYCNKGRYWSNYFYWPSTHVYWGQGTQVTVSS; high polyreactivity
QLQLVESGGGLVQAGCSLRLSCADSGRNYTMGRYRQAPGKERELVDASSKSGGSTSYADSVKGRFTISRDNAKNTVYLQLNSLKPEDTAVYYCATALRGSQAYSVRAMNYWGQATQVTVSS; high polyreactivity
QVQLQGSGGGLAQAGDSLRLSSEASGTIFSEYNNGLVSPGAGQRTRTCCRYWCWGNTYYPDSAKGRFTTSLDNAKNTVYLQKNSLKPEDTEVYYCAFNRPYPSRHIYRGQGTQVTVSS; high polyreactivity

###

testName: yeast display, Sf9 membrane polyspecificity reagent, FACS + sequencing; frameworks hold sequencing errors
parameter: polyreactivity (PSR sort gate)

QVQLVESGVGLVQAGGSLRLSCAASGITFAGNAMGWYRQAPGKERELVATITSDGNTNYADSVKGRFTISRDNAKNTVYLQMNSLKPEDTAVYYCNAEVIVGTDEYDYWGQGTQVTVSS; low polyreactivity
QVQLVESGGGLVQAGGSLRLSCAASGLTFSLYAMGWYGQAPGKEREFVAAISSSGGSTYYADSVKGRFTISRDNAKNTVYLQMNSLKPEDTAVYYCNVRRKSRMGYWGQGTQVTVSS; high polyreactivity
QVQLVESGGGLVQAGGTLRLRCAASGRTFKDYAMGWYRQAPGKERELVAAISWSGGDTYYADSVKGRFTISRDNAKNTVYFQLNSLKPEDTAVYYCNADPSGVFFYSLEFDYWGQGTQVTVSS; low polyreactivity
QVQLVESGGGLVQAGGSLRLSCAVSGGLFSFYAMGWYRQAPGKERELVAAISSGGTTYYADSVKGRFTISRDNAKNTVYLQMNSLKPEDTAVYYCALLVGHNYWGQGTQVTVSS; low polyreactivity
QVQRVESGGGLVQAGGSLRLRCAASGRTFGYYAMGWYRHAPGKERVLVAAINSRGGSTYYADPVKGRFTISRDNAKNTVYLQMNSLKPEDTAVYYCAKRWCSYGSYSLYDYWGQGTQVTVSS; high polyreactivity
QVQHVESGGGLVQAGGRLRLSCAASGRTFPRYAIGLYRQAPGKERELVAAISVLAGITYYADSVKGRFTISRDNAKNTVYLQMNSLKPEDTAVYYCAKDHWTTSYDEGDYWGQGPQVTVSS; low polyreactivity
QVQLVESGGGLVQAGVSLRISCAASGSTFRGYVMGWYRPAPGKERELVAAISRSGTSTYYADSVKGRFTISRDNAKNTVYLQINSLKPEDTAVYYCAAQLYGHGEDYWGQGTQVTVSS; high polyreactivity
QVQLVESGGGLVQAGGSLRLSCAASGSTFKVYTMGWYRQAPGKERELVAAITGGGGSTYYADSVKGRFTISRDNAKNTVSLQMNSLKPEDTAVYYCAAQKRGPGYPYYYWGQGTQVTVSS; high polyreactivity
QVQLVESGGGLVQAGGSLRLSCAASGSTLSKYAMGWYRQAPGKERELVAAISQRGGSTYYADSVKGRFTISRDNAKNTVYLQMNSLKPEDTAVYYCNALQRRYGYWGQGTQVTVSS; high polyreactivity
QVQLVESGGGLVQAGGSLRLSCAASGRTFAIYAMGWSRQAPGKERELVAAIRWRDGSTYYADSVKGRFTISRDNAKNTVYLQMNSLKPEDTAVYYCAATSRVYVRGSYWKYGYWGQGTQVTVSS; high polyreactivity
QVQLVESVGGLVQAGGSLRLSCAASGRTFFPYAMGWYRQAPGKEREFVAAITKTDDSTYYADSVKGRFTISRDNAKNTVYLQMNSLKPEDTAVYYCNAGDTQIRFYYWGQGTQVTVSS; low polyreactivity
